Test system: HepG2
Experiment: cytotoxicity call (relative viability < 0.9)
Settings: 10 µM
The whole screen tested about 39,000 compounds, of which about 3,300 (8.5%) were called active. The sample as a whole holds a higher share of actives than the screen did.
Write down one outcome, taken from active, inactive

CC(C)NC(=O)N(C)C[C@H]1OCCCC[C@H](C)Oc2ccc(NC(=O)Nc3ccccc3)cc2C(=O)N([C@H](C)CO)C[C@@H]1C	inactive
COc1ccc([Si](C)(C)[C@@H]2[C@@H](CCO)O[C@]3(C(=O)N(Cc4cccc(N5C(=O)c6ccccc6Oc6ccccc65)c4)c4ccccc43)[C@H]2C)cc1	active
COc1ccc([Si](C)(C)[C@H]2[C@H](CCO)O[C@@]3(C(=O)N(Cc4cccc(N5C(=O)c6ccccc6Oc6ccccc65)c4)c4ccccc43)[C@@H]2C)cc1	active
O=C(CN1CCOCC1)NCC[C@H]1CC[C@@H](NC(=O)c2ccccc2F)[C@@H](CO)O1	inactive
CCCCC(=O)C1CCC(c2ccc(Cl)cc2)CC1 (centres undefined)	inactive

Name the outcome recorded for C[C@@H]1CN([C@H](C)CO)C(=O)Cc2cc(NS(=O)(=O)c3ccc(Cl)cc3)ccc2O[C@@H]1CN(C)Cc1ccc(Oc2ccccc2)cc1 in the assay. active

Identify the outcome logged in this assay for the compound shown: C[C@@H]1CN([C@@H](C)CO)C(=O)Cc2cc(NS(=O)(=O)c3ccc(Cl)cc3)ccc2O[C@H]1CN(C)Cc1ccc(Oc2ccccc2)cc1 active

Call for entry Cc1noc(C)c1NC(=O)N(C)C[C@@H]1OCCCC[C@H](C)Oc2ccc(NC(=O)c3ccccc3)cc2C(=O)N([C@@H](C)CO)C[C@H]1C : inactive

Hi, do you know how C[C@@H]1CN([C@@H](C)CO)C(=O)c2cc(NC(=O)Nc3ccc4c(c3)OCO4)ccc2O[C@@H]1CN(C)C(=O)Nc1ccc(C(F)(F)F)cc1 came out in this test? inactive

Could you check what this test reported for C[C@@H]1CN([C@@H](C)CO)C(=O)c2ccccc2-c2ccccc2CO[C@@H]1CN(C)C(=O)Nc1cccc(Cl)c1Cl ? inactive

GET /call?item= C[C@@H]1CN([C@H](C)CO)C(=O)c2cc(NC(=O)c3ccncc3)ccc2O[C@H]1CN(C)Cc1ccc(-c2ccccc2)cc1 returns the recorded outcome of this test. active

Hello, I am checking results. What call was entered for COc1ccc(CN(C)C[C@H]2OCCCC[C@H](C)Oc3ccc(NC(=O)Nc4ccc(C(F)(F)F)cc4)cc3C(=O)N([C@H](C)CO)C[C@@H]2C)cc1 ? active
